- Tested on: Soya beans
- TEST METHOD NOTES: Pre-emergence test/Greenhouse, Soya beans
- Type: in vivo
- REPORTED CONDITIONS: in vivo
Measured degree of damage to the plants (% damage vs untreated control), Soya beans, listed per entry.
Write it as a number; the unit % goes unstated.

Check out these entries, answers already filled in.
{"CHEMICAL STRING": "Cc1cccc(C(=O)OC(C)C)c1S(=O)(=O)NC(=O)n1nc(OC(C)C)n(C)c1=O", "READING": 0}
{"CHEMICAL STRING": "COc1nn(C(=O)NS(=O)(=O)c2c(C)cccc2C(=O)OC(C)C)c(=O)n1C", "READING": 0}
{"CHEMICAL STRING": "C#CCSc1nn(C(=O)NS(=O)(=O)c2c(C)cccc2C(=O)OC)c(=O)n1C", "READING": 20}
{"CHEMICAL STRING": "CCCOC(=O)c1cccc(C)c1S(=O)(=O)NC(=O)n1nc(OCC)n(CC)c1=O", "READING": 20}

Qu. # input molecule: `COC(=O)c1cccc(C)c1S(=O)(=O)NC(=O)n1nc(SCCF)n(C2CC2)c1=O` ; wanted: its degree of damage to the plants (% damage vs untreated control), Soya beans
Ans. 10

Qu. degree of damage to the plants (% damage vs untreated control), Soya beans lookup needed for `CCc1nn(C(=O)NS(=O)(=O)c2c(C)csc2C(=O)OC)c(=O)n1C` , thanks.
Ans. 20

Qu. Can you look up the measured degree of damage to the plants (% damage vs untreated control), Soya beans of `CCOC(=O)c1scc(C)c1S(=O)(=O)NC(=O)n1nc(C(C)C)n(C)c1=O` for me?
Ans. 10

Qu. May I ask what degree of damage to the plants (% damage vs untreated control), Soya beans has been recorded for `CCOn1c(SC)nn(C(=O)NS(=O)(=O)c2c(C)cccc2C(=O)OC)c1=O` ?
Ans. 10
